- study_system: intestinal alkaline phosphatase Alpi (Mus musculus)
- experiment: inhibition of murine Alpi phosphatase – biochemical, luminescence, SAR follow-up (AID 493135)
- assay_context: purified mouse IAP, luminescent substrate readout
Calls of active or inactive are those of the source. How the calls were made is not given here.
Outcome codes: Yes = active, No = inactive

> print(dat)
                                   compound  assigned.category
1  Fc1ccc(NC(=S)NCCC(c2ccccc2)c2ccccc2)cc1Cl                 No
2  CCn1cc(CN2CCC(C(=O)Nc3cccc(-c4cccc(Cl)c4)c3)CC2)cn1                 No
3  CCn1cc(CN2CCC(C(=O)Nc3cccc(-c4cccc(F)c4)c3)CC2)cn1                 No
4  O=C(CN1C(=O)/C(=C\c2ccco2)SC1=S)Nc1ccccc1C(=O)O                Yes
5  O=[N+]([O-])c1ccc(NC(=S)NCCC(c2ccccc2)c2ccccc2)cc1                 No

----------
- study_system: intestinal alkaline phosphatase Alpi (Mus musculus)
- experiment: inhibition of murine Alpi phosphatase – biochemical, luminescence, SAR follow-up (AID 493135)
- assay_context: purified mouse IAP, luminescent substrate readout
The source made the active and inactive calls. The rule behind the calls is not given here.
Outcome codes: 1.0 for active, 0.0 for inactive

> print(dat)
                                   compound  assigned.category
1  S=C(NCCC(c1ccccc1)c1ccccc1)Nc1cccc(Cl)c1                0.0
2  Cn1cc(CN2CCC(C(=O)Nc3cccc(-c4cccc(Cl)c4)c3)CC2)cn1                0.0
3  COc1ccc(Cl)cc1NC(=S)NCCC(c1ccccc1)c1ccccc1                0.0
4  Cc1c(Cl)cccc1NC(=S)NCCC(c1ccccc1)c1ccccc1                0.0
5   COc1ccc(Cl)cc1Nc1nc(-c2ccc(O)c(O)c2)cs1                1.0
6  CC(C)n1cc(CN2CCC(C(=O)Nc3cccc(-c4cccc(Cl)c4)c3)CC2)cn1                0.0
7  COCc1ccc(CN2CCC(C(=O)Nc3cccc(-c4cccc(Cl)c4)c3)CC2)o1                0.0
